Cited source for all entries: ChEMBL document CHEMBL4007399

Tested on: Hepatitis C virus
PROTOCOL_DETAILS: Antiviral activity against Hepatitis C virus genotype 1b infected in human HuH7 cells preincubated with cells for 3 days followed by viral infection by luciferase assay
Type: functional, cell-based, Hepacivirus hominis
RESULT_TYPE: pEC50
pEC50 (log units): -log10 of the concentration in mol/L.

Exercise: Find the recorded pEC50 belonging to CCC(CC)COC(=O)[C@H](C)N[P@](=O)(OC[C@H]1O[C@@](C#N)(c2ccc3c(N)ncnn23)[C@H](O)[C@@H]1O)Oc1ccccc1 and report it.
Key: 7.24

Exercise: Param item = CCC(CC)COC(=O)[C@H](C)N[P@](=O)(OC[C@H]1O[C@@](C#N)(c2ccc3c(N)ncnn23)[C@H](O)[C@@H]1O)Oc1ccccc1 (mixture of isomers) ; retrieve measured pEC50.
Key: 7.64

---

Tested on: Human orthopneumovirus
PROTOCOL_DETAILS: Antiviral activity against Respiratory syncytial virus A2 infected in human Hep2 cells assessed as reduction of virus-induced cytopathic effect after 4 days by Cell-Titer Glo assay
Assay type: functional, cell-based
DETAILS: human respiratory syncytial virus, A2, HEp-2, 96 h
For each record, write down the corresponding pEC50.
Just the number, please; pEC50 means minus log10 of the concentration in mol/L.

Exercise: I would be grateful if you could share the reported pEC50 for CC(C)OC(=O)[C@H](C)NP(=O)(OC[C@H]1O[C@@](C#N)(n2ccc(N)nc2=O)[C@H](O)[C@@H]1O)Oc1ccccc1 (some centres undefined) .
Key: 4.20

Exercise: // pEC50 lookup, key: N#C[C@@]1(c2ccc3c(N)ncnn23)O[C@H](CO)[C@@H](O)[C@H]1O [GS-441524]
Key: 6.28

---

PROTOCOL_DETAILS: Inhibition of recombinant human DNA polymerase gamma preincubated with enzyme followed by addition of dATP/dGTP/TTP as substrate in presence of […] by phosphorimaging assay
pIC50: −log10 of the molar value.
RESULT_TYPE: pIC50

Exercise: I have this compound here, N#C[C@@]1(c2ccc3c(N)ncnn23)O[C@H](COP(=O)(O)OP(=O)(O)OP(=O)(O)O)[C@@H](O)[C@H]1O , and I need its recorded pIC50.
Key: < 3.70

---

SUBJECT_OF_TEST: DNA polymerase beta (Homo sapiens)
PROTOCOL_DETAILS: Inhibition of recombinant human DNA polymerase beta preincubated with enzyme followed by addition of dATP/dGTP/TTP as substrate in presence of […] by phosphorimaging assay
RESULT_TYPE: IC50

Exercise: Look up IC50: N#C[C@@]1(c2ccc3c(N)ncnn23)O[C@H](COP(=O)(O)OP(=O)(O)OP(=O)(O)O)[C@@H](O)[C@H]1O
Key: > 200 µM

---

PROTOCOL_DETAILS: Lipophilicity, log D of the compound after 30 mins by HPLC/UV method
Format: physicochemical
Returns one of 1 (yes) or 0 (no); 1 (yes) when logD at 0.5 h is >= 1.

Exercise: State whether the measured logD at 0.5 h reaches 1, counting equality as reaching it, for CCOC(=O)[C@@H](NP(=O)(OC[C@H]1O[C@@](C#N)(c2ccc3c(N)ncnn23)[C@H](O)[C@@H]1O)Oc1ccccc1)C(C)C (stereo partly specified)
Key: 1 (yes)

Exercise: Please check the record CCC(CC)COC(=O)[C@H](C)N[P@@](=O)(OC[C@H]1O[C@@](C#N)(c2ccc3c(N)ncnn23)[C@H](O)[C@@H]1O)Oc1ccccc1 and state if its logD at 0.5 h is at or above 1.
Key: 1 (yes)

Exercise: Please check the record CCOC(=O)[C@H](C)NP(=O)(N[C@@H](C)C(=O)OCC)OC[C@H]1O[C@@](C#N)(c2ccc3c(N)ncnn23)[C@H](O)[C@@H]1O and state if its logD at 0.5 h is at or above 1.
Key: 0 (no)

Exercise: Textbook exercise: given the entry C[C@H](NP(=O)(OC[C@H]1O[C@@](C#N)(c2ccc3c(N)ncnn23)[C@H](O)[C@@H]1O)Oc1ccccc1)C(=O)OC1CCCC1 (stereo partly specified) , state whether its logD at 0.5 h is greater than or equal to 1.
Key: 1 (yes)

Exercise: Quick check: does CCC(CC)COC(=O)[C@@H](C)NP(=O)(OC[C@H]1O[C@@](C#N)(c2ccc3c(N)ncnn23)[C@H](O)[C@@H]1O)Oc1ccccc1 (stereo partly specified) have logD at 0.5 h greater than or equal to 1?
Key: 1 (yes)

Exercise: Is the recorded value of logD at 0.5 h equal to or greater than 1 for this compound? CCOC(=O)[C@H](C)NP(=O)(OC[C@H]1O[C@@](C#N)(c2ccc3c(N)ncnn23)[C@H](O)[C@@H]1O)Oc1ccccc1 (stereo partly specified)
Key: 0 (no)
